System: BJ non-tumoral fibroblast cell line
Run description: MTT cell viability assay, BJ
Assay type: cell-based
Condition: 72 h incubation
Measure: IC50

The measured IC50 associated with CC(=O)Oc1c(C(C)C)cc2c(c1OC(C)=O)[C@@]1(NC(=O)NCCc3cccc(Cl)c3)CCCC(C)(C)[C@@H]1CC2 [Compound 14] reads > 25 µM
